Reported pIC50 values for a set of molecules
Tested on: MDA-MB-231
Assay: Cytotoxicity against human MDA-MB-231 cells by MTT assay
Type: functional, cell-based
Convention used: pIC50 is expressed as -log10 of the molar concentration.

These recorded examples may help you get a feel for the data.
SMILES REPR: Cc1nc2nc(Oc3ccccc3)cnc2cc1NC(=O)Nc1ccccc1
PROPERTY NAME: pIC50
QUANTITATIVE READOUT: 5.29

SMILES REPR: Cc1nc2nc(Sc3ccccc3)cnc2cc1NC(=O)c1ccccc1
PROPERTY NAME: pIC50
QUANTITATIVE READOUT: 5.40

Next up:
// pIC50 lookup, molecule = Cc1nc2nc(Sc3ccccc3)cnc2cc1NC(=O)Nc1ccccc1 , result: 5.21
